Target: Recombinant human HSD17B13 enzyme (Homo sapiens)
Sequence (Q7Z5P4 20-300): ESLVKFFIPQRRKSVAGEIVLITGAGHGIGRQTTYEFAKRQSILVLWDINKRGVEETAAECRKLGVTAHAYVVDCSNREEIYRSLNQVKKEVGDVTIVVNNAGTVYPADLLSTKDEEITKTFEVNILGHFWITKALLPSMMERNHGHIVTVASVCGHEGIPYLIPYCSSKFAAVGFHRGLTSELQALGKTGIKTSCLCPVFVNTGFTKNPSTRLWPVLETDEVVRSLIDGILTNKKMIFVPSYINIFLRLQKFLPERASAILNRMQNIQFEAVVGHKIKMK
Experiment: HSD17b13 NAD(P)H-Glo biochemical assay
Conditions: 50 uM estradiol, 1 mM NAD+, NAD(P)H-Glo luminescence; read-out: HSD17β13 IC50
pIC50: −log10 of the molar value.
Listed compounds paired with reported pIC50

Record excerpt, results attached:
{"compound": "Cn1nc(-c2cc(C(F)(F)F)c(F)c(O)c2F)c2cnc(N3CCOC(c4nnn[nH]4)C3)nc21 (stereo not shown)", "readout-value": "4.52 to 6.00"}
{"compound": "CS(=O)(=O)N1CCN(c2cnc3c(-c4cc(O)c(F)c(C(F)(F)F)c4)nn(C4CCCCO4)c3n2)CC1 (stereo not shown)", "readout-value": "> 7.00"}
{"compound": "CN1CCN(c2ncc3c(-c4cc(C(F)(F)F)c(F)c(O)c4F)nn(C)c3n2)CC1c1ccccc1 (stereo not shown)", "readout-value": "> 7.00"}

Please turn your attention to the following entry.
Entry CNC(=O)N1CCN(c2ncc3c(-c4cc(C(F)(F)F)c(F)c(O)c4F)nn(C)c3n2)CC12CCC2 : reported pIC50 = ? > 7.00
